- test.protocol: AUC infinity in 16 hrs fasted ICR mouse at 2 mg/kg, iv measured upto 8 hrs by LC-MS/MS analysis
- Type: ADME, organism-based
- condition.details: in vivo
experimental.endpoint: AUC(0-inf) (ng·h/mL)
Quick reminder: number only, in ng·h/mL, skip the unit.

// query Retrieve AUC(0-inf) measured for `COc1ccccc1Nc1c(N[C@H]2CC[C@H](Oc3ccc([N+](=O)[O-])cc3)CC2)c(=O)c1=O` and print it.
// result 2400

---

- tested.target: CYP3A4 (Homo sapiens)
- Sequence (P08684 whole entry): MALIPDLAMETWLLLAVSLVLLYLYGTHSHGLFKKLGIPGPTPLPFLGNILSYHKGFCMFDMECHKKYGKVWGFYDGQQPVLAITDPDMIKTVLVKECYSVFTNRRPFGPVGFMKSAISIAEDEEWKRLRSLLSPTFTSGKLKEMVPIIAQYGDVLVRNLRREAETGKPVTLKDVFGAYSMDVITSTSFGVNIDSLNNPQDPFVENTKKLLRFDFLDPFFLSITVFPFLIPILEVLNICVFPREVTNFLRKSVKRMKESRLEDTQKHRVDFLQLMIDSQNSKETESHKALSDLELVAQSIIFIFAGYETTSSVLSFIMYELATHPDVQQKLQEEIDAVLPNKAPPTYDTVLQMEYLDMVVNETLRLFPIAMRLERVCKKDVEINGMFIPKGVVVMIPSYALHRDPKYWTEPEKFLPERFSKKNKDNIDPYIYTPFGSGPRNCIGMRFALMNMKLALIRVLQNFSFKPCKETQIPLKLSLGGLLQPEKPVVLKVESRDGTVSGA
- test.protocol: Inhibition of CYP3A4 in human liver microsomes at 10 uM using midazolam as substrate preincubated for 5 mins followed by NADPH generating system addition and measured after 15 mins relative to control
- Format: ADME, Microsome
- condition.details: probe midazolam, time 20 min
# inhibition at 0.25 h, 10 µM per entry
Could you give me the number in %? Just the number is fine.

COc1ccccc1Nc1c(N[C@H]2CC[C@H](Oc3ccc([N+](=O)[O-])cc3)CC2)c(=O)c1=O : 91.6

Moving on to another molecule below.
// query Report value only: inhibition at 0.25 h, 10 µM, CYP3A4 (Homo sapiens), `COc1ccccc1Nc1c(N[C@H]2CC[C@H](Oc3ccc(C#N)cc3)CC2)c(=O)c1=O`
// result 84

---

We begin with a simple list: items and their reported Activity.
- test.protocol: Downregulation of SREBP-1c mRNA expression in human HepG2 cells at 10 uM pretreated with compound for 30 mins followed by T0901317 addition and measured after 12 hrs by RT-qPCR analysis relative to control
- Assay type: functional
- condition.details: time 12.5 hrs
Numbers only here, please. The scale is %.

See these solved cases before continuing.
CC(C)(C)c1ccc(Nc2c(N[C@H]3CC[C@H](Oc4ccc([N+](=O)[O-])cc4)CC3)c(=O)c2=O)cc1 : 50.4
N#Cc1ccc(O[C@H]2CC[C@H](Nc3c(Nc4ccc(Cl)cc4)c(=O)c3=O)CC2)cc1 : 36.9

// query Find the measured Activity of `COc1ccc(Nc2c(N[C@H]3CC[C@H](Oc4ccc(C(F)(F)F)cc4)CC3)c(=O)c2=O)cc1` and report it.
// result 28.7

// query Find the measured Activity of `CS(=O)(=O)c1ccc(O[C@H]2CC[C@H](Nc3c(Nc4ccccc4)c(=O)c3=O)CC2)cc1` and report it.
// result 76.1

// query Recall and state the measured Activity for `CC(C)(C)c1ccc(Nc2c(N[C@H]3CC[C@H](Oc4ccc(C#N)cc4)CC3)c(=O)c2=O)cc1` .
// result 61.5

// query Specify reported Activity for the compound shown: `COC(=O)c1ccc(Nc2c(N[C@H]3CC[C@H](Oc4ccc(C#N)cc4)CC3)c(=O)c2=O)cc1`
// result 65.9

// query // Input: `COC(=O)c1ccc(Nc2c(N[C@H]3CC[C@H](Oc4ccc(S(C)(=O)=O)cc4)CC3)c(=O)c2=O)cc1` . Output its Activity only.
// result 22.3

// query Identify measured Activity corresponding to `COc1ccc(Nc2c(N[C@H]3CC[C@H](Oc4ccc([N+](=O)[O-])cc4)CC3)c(=O)c2=O)cc1`
// result 34.3

// query Indicate the recorded Activity value for this compound: `COc1ccccc1Nc1c(N[C@H]2CC[C@H](Oc3ccc(C#N)cc3)CC2)c(=O)c1=O`
// result 7.4
